Biological target: human ERα (Homo sapiens)
Sequence (P03372 1-595): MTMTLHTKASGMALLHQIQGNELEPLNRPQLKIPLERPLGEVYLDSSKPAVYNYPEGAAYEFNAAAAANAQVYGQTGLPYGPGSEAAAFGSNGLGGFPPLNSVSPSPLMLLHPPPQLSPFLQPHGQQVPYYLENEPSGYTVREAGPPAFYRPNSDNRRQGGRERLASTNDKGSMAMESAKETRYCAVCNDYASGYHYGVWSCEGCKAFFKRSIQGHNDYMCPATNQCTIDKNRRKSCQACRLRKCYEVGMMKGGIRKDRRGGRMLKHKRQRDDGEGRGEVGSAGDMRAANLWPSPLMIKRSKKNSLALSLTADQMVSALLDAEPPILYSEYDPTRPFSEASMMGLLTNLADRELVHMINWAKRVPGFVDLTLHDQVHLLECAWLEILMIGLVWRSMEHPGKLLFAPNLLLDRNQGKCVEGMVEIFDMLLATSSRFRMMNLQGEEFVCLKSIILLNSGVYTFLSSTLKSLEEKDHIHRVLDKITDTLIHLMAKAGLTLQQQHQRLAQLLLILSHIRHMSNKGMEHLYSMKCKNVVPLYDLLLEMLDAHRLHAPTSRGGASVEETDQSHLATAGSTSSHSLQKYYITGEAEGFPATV
Experiment: Creatine kinase expression (ER/CK) in Ad5-wt-hERα infected HAECT-1 cells
Define the label as satisfied when EC50 is strictly less than 700 nM and as not satisfied in all remaining cases.

sample_smiles=Cc1cc(O)ccc1-c1nn(C2CCCC2)c2c(-c3ccc(O)c(O)c3)cccc12 qualitative_label=satisfied
sample_smiles=C=CCn1nc2c(Cl)cccc2c1-c1ccc(O)cc1C qualitative_label="not satisfied"
sample_smiles=CC(C)n1nc2c(F)cccc2c1-c1ccc(O)cc1 qualitative_label=satisfied
sample_smiles=CCCCn1nc(-c2ccc(O)cc2)c2ccc(C(F)(F)F)cc21 qualitative_label="not satisfied"
sample_smiles=CC(C)(C)OC(=O)N[C@@H](CCC(=O)Oc1ccc(-c2nn(C3CCCC3)c3c(F)cccc23)cc1)C(=O)OC(C)(C)C qualitative_label=satisfied
sample_smiles=CCCn1nc2c(Cl)cccc2c1-c1ccc(O)cc1C qualitative_label="not satisfied"
sample_smiles=Oc1ccc(-c2nn(-c3ccc(OC(F)(F)F)cc3)c3cc(O)ccc23)c(O)c1 qualitative_label="not satisfied"
sample_smiles=Oc1ccc(-c2n[nH]c3cc(Cl)c(F)cc23)cc1 qualitative_label="not satisfied"
sample_smiles=Oc1ccc(-c2nn(C3CCCC3)c3c(-c4ccccc4)cccc23)cc1 qualitative_label=satisfied
sample_smiles=Oc1ccc(-c2nn(Cc3ccccc3)c3c(Cl)cccc23)c(O)c1 qualitative_label=satisfied
sample_smiles=Cn1nc(-c2ccc(O)cc2O)c2cc(F)ccc21 qualitative_label="not satisfied"
sample_smiles=CCCn1nc(-c2ccc(O)cc2C)c2cccc(C(F)(F)F)c21 qualitative_label=satisfied
sample_smiles=Cn1nc(-c2ccc(O)c(O)c2)c2cccc(C(F)(F)F)c21 qualitative_label="not satisfied"
sample_smiles=CCCCCn1nc(-c2ccc(O)cc2)c2cccc(C(F)(F)F)c21 qualitative_label=satisfied
sample_smiles=Cc1cc(O)ccc1-c1nn(C(C)C)c2c(Cl)cccc12 qualitative_label=satisfied
sample_smiles=Cc1cccc2c(-c3ccc(O)cc3)n(C(C)C)nc12 qualitative_label=satisfied
sample_smiles=CC(C)n1nc(-c2ccc(O)cc2)c2cccc(-c3ccc(O)c(O)c3)c21 qualitative_label="not satisfied"
sample_smiles=Cn1nc(-c2ccc(O)cc2O)c2cccc(C(F)(F)F)c21 qualitative_label=satisfied
sample_smiles=Oc1ccc(-c2nn(C3CCCC3)c3c(C(F)(F)F)cccc23)c(O)c1 qualitative_label=satisfied

###

Form field: EC50 (one value per entry).
Target: human ERα (Homo sapiens, UniProt P03372)
Sequence (P03372 1-595): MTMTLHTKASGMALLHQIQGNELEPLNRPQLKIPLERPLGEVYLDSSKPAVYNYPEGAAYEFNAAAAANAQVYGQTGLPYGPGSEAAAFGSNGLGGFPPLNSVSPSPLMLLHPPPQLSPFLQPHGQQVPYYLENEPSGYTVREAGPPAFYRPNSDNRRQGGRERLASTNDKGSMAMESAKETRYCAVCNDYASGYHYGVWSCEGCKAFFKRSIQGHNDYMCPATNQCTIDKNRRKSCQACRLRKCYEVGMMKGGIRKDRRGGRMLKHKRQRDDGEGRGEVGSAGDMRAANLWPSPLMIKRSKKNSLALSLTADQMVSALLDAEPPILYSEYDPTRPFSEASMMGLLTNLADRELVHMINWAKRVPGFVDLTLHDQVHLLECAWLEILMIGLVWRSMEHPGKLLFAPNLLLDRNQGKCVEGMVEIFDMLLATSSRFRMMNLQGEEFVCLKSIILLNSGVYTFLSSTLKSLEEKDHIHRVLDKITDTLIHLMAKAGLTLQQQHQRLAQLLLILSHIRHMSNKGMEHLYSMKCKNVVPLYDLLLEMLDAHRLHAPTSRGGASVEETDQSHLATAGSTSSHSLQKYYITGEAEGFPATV
Assay: Creatine kinase expression (ER/CK) in Ad5-wt-hERα infected HAECT-1 cells
Readout name: EC50 (nM)

sample_smiles=Cc1cccc2c(-c3ccc(O)cc3)n[nH]c12 readout_name=EC50 measurement_unit=nM recorded_result=137
sample_smiles=Cc1ccccc1-c1cccc2c(-c3ccc(O)cc3)nn(C(C)C)c12 readout_name=EC50 measurement_unit=nM recorded_result=223
sample_smiles=Cc1cccc(-n2nc(-c3ccc(O)cc3O)c3ccc(O)cc32)c1 readout_name=EC50 measurement_unit=nM recorded_result=72
sample_smiles=Cc1cc(O)ccc1-c1nn(C(C)C)c2c(F)cccc12 readout_name=EC50 measurement_unit=nM recorded_result=787
sample_smiles=CCCCn1nc(-c2ccc(O)cc2)c2cc(C(F)(F)F)ccc21 readout_name=EC50 measurement_unit=nM recorded_result=902
sample_smiles=Cc1cc(O)ccc1-c1nn(C2CCCC2)c2c(-c3ccccc3)cccc12 readout_name=EC50 measurement_unit=nM recorded_result=138
sample_smiles=Cn1nc(-c2ccc(O)cc2)c2cccc(Cl)c21 readout_name=EC50 measurement_unit=nM recorded_result=387
sample_smiles=Cc1cc(O)ccc1-c1nn(C(C)C)c2c(-c3ccsc3)cccc12 readout_name=EC50 measurement_unit=nM recorded_result=17
sample_smiles=Cn1nc(-c2ccc(O)cc2)c2cccc(F)c21 readout_name=EC50 measurement_unit=nM recorded_result=1480

###

biological target: human ERα (Homo sapiens, UniProt P03372); assay: NF-κB luciferase reporter (ER/NF-KB-luc) in Ad5-wt-hERα infected HAECT-1 cells; details: HAECT1, read-out: ER/NF-KB-luc % E2, efficacy relative to the maximal inhibition observed with E2
Decision: Emax >= 80% yields YES, all other cases yield NO.

compound="COc1ccc(-n2nc(-c3ccc(O)cc3O)c3ccc(O)cc32)cc1 [Example 11]" system_tested="human ERα (Homo sapiens, UniProt P03372)" qualitative_label=NO
compound="Oc1ccc(-c2nn(Cc3ccccc3)c3c(C(F)(F)F)cccc23)c(O)c1 [Example 143]" system_tested="human ERα (Homo sapiens, UniProt P03372)" qualitative_label=NO
compound="Cc1ccccc1-c1cccc2c(-c3ccc(O)cc3)nn(C(C)C)c12 [Example 235]" system_tested="human ERα (Homo sapiens, UniProt P03372)" qualitative_label=NO
compound="Cn1nc(-c2ccc(O)cc2)c2cc(C(F)(F)F)ccc21 [Example 171]" system_tested="human ERα (Homo sapiens, UniProt P03372)" qualitative_label=YES
compound="Oc1ccc(-c2n[nH]c3c(F)cccc23)cc1 [Example 203, 4-(7-fluoro-1H-indazol-3-yl)phenol]" system_tested="human ERα (Homo sapiens, UniProt P03372)" qualitative_label=YES
compound="Cc1cc(O)ccc1-c1nn(C2CCCC2)c2c(-c3ccc(-c4ccccc4)cc3)cccc12 [Example 261]" system_tested="human ERα (Homo sapiens, UniProt P03372)" qualitative_label=NO
compound="O=[N+]([O-])c1cccc(-n2nc(-c3ccc(O)cc3O)c3ccc(O)cc32)c1 [Example 25]" system_tested="human ERα (Homo sapiens, UniProt P03372)" qualitative_label=YES
compound="CC(C)n1nc(-c2ccc(O)cc2)c2cccc(Cl)c21 [Example 45]" system_tested="human ERα (Homo sapiens, UniProt P03372)" qualitative_label=YES
compound="C=CCn1nc(-c2ccc(O)cc2)c2cccc(C(F)(F)F)c21 [Example 58]" system_tested="human ERα (Homo sapiens, UniProt P03372)" qualitative_label=YES
compound="N#Cc1ccc(-n2nc(-c3ccc(O)cc3O)c3ccc(O)cc32)cc1 [Example 15]" system_tested="human ERα (Homo sapiens, UniProt P03372)" qualitative_label=YES
compound="CCCn1nc(-c2ccc(O)cc2C)c2cccc(Cl)c21 [Example 86]" system_tested="human ERα (Homo sapiens, UniProt P03372)" qualitative_label=YES
compound="CC(=O)Oc1ccc(-c2nn(C3CCCC3)c3c(F)cccc23)cc1 [Example 114]" system_tested="human ERα (Homo sapiens, UniProt P03372)" qualitative_label=NO
compound="Oc1ccc(-c2nn(-c3ccc(F)c(Cl)c3)c3cc(O)ccc23)c(O)c1 [Example 24]" system_tested="human ERα (Homo sapiens, UniProt P03372)" qualitative_label=YES
compound="CCCn1nc2c(Cl)cccc2c1-c1ccc(O)cc1C [Example 79]" system_tested="human ERα (Homo sapiens, UniProt P03372)" qualitative_label=YES
compound="Cn1nc(-c2ccc(O)cc2)c2cc(F)c(Cl)cc21 [Example 125]" system_tested="human ERα (Homo sapiens, UniProt P03372)" qualitative_label=YES
compound="Cc1cccc2c(-c3ccc(O)cc3)n(C(C)C)nc12 [Example 40]" system_tested="human ERα (Homo sapiens, UniProt P03372)" qualitative_label=YES
compound="C=CCn1nc(-c2ccc(O)cc2C)c2cccc(Cl)c21 [Example 82]" system_tested="human ERα (Homo sapiens, UniProt P03372)" qualitative_label=NO
compound="CCCCCn1nc(-c2ccc(O)cc2)c2cccc(C(F)(F)F)c21 [Example 47]" system_tested="human ERα (Homo sapiens, UniProt P03372)" qualitative_label=YES
compound="CCCCn1nc(-c2ccc(O)cc2)c2ccc(C(F)(F)F)cc21 [Example 198]" system_tested="human ERα (Homo sapiens, UniProt P03372)" qualitative_label=YES
compound="Oc1ccc(-c2c3cccc(Cl)c3nn2C2CCCC2)cc1 [Example 52]" system_tested="human ERα (Homo sapiens, UniProt P03372)" qualitative_label=NO
compound="Oc1ccc(-c2nn(-c3ccc(Br)cc3)c3cc(O)ccc23)c(O)c1 [Example 7]" system_tested="human ERα (Homo sapiens, UniProt P03372)" qualitative_label=YES
compound="CCCCCn1nc(-c2ccc(O)cc2O)c2cccc(C(F)(F)F)c21 [Example 73]" system_tested="human ERα (Homo sapiens, UniProt P03372)" qualitative_label=NO
compound="Cc1cc(O)ccc1-c1c2cccc(Cl)c2nn1C(C)C [Example 81]" system_tested="human ERα (Homo sapiens, UniProt P03372)" qualitative_label=YES
compound="CC(C)n1nc(-c2ccc(O)cc2)c2cccc(-c3ccccc3)c21 [Example 236]" system_tested="human ERα (Homo sapiens, UniProt P03372)" qualitative_label=YES
compound="Cc1cc(O)ccc1-c1nn(C2CCCC2)c2c(-c3ccc(O)c(O)c3)cccc12 [Example 259]" system_tested="human ERα (Homo sapiens, UniProt P03372)" qualitative_label=NO
compound="CCc1ccc(-c2cccc3c(-c4ccc(O)cc4C)nn(C4CCCC4)c23)cc1 [Example 260]" system_tested="human ERα (Homo sapiens, UniProt P03372)" qualitative_label=NO
compound="CCCn1nc(-c2ccc(O)cc2)c2cccc(N3CCOCC3)c21 [Example 105]" system_tested="human ERα (Homo sapiens, UniProt P03372)" qualitative_label=NO
compound="Oc1ccc(-c2nn(C3CCCC3)c3c(-c4ccccc4Cl)cccc23)cc1 [Example 243]" system_tested="human ERα (Homo sapiens, UniProt P03372)" qualitative_label=YES
compound="Cc1cccc2c(-c3ccc(O)cc3)n[nH]c12 [Example 34, 4-(7-methyl-1H-indazol-3-yl) phenol]" system_tested="human ERα (Homo sapiens, UniProt P03372)" qualitative_label=YES
compound="Cc1cccc2c(-c3ccc(O)cc3)nn(C(C)C)c12 [Example 39]" system_tested="human ERα (Homo sapiens, UniProt P03372)" qualitative_label=YES
